Please go through the items and note down their inhibition.
# target_of_assay: UniProt P48730
# Sequence (P48730 whole entry, looked up): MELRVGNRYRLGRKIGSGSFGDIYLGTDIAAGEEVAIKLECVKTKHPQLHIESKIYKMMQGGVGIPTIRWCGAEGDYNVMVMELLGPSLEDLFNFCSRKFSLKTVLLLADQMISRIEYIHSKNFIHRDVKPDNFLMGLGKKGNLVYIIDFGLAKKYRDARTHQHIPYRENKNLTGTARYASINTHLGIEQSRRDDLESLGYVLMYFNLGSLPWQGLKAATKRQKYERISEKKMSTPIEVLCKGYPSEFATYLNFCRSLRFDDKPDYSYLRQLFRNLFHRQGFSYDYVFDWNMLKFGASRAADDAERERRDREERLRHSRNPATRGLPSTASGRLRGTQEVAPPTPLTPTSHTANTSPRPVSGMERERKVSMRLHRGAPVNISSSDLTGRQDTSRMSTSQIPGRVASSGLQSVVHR
# assay_procedure: Caliper, Mobility shift assay off-chip
# stated_conditions: compound 0.1 µM
# output: bare number, implied unit %

Challenge: Would you mind telling me what inhibition value was observed for Cn1cc(-c2cnc3ccc4ccc(CS(=O)(=O)NC5CCCCC5)cc4c(=O)c3c2)cn1 ?
Response given: 8.9

Challenge: Would you mind telling me what inhibition value was observed for O=c1c2cc(CS(=O)(=O)NCc3ccccn3)ccc2ccc2ncc(C3CCNCC3)cc12 ?
Response given: -2.8

Challenge: Would you mind telling me what inhibition value was observed for Cn1cc(-c2cnc3ccc4ccc(CS(=O)(=O)NCC5CCCCN5)cc4c(=O)c3c2)cn1 (configuration not stated) ?
Response given: 20.4

Challenge: Would you mind telling me what inhibition value was observed for Cn1cc(-c2cnc3ccc4ccc(CS(=O)(=O)CCc5ccccn5)cc4c(=O)c3c2)cn1 ?
Response given: 7.8

Challenge: Would you mind telling me what inhibition value was observed for CN(c1ccc2ccc3ncc(-c4cnn(C)c4)cc3c(=O)c2c1)S(=O)(=O)NCc1ccccn1 ?
Response given: 3.5

Challenge: Would you mind telling me what inhibition value was observed for Cn1cc(-c2cnc3ccc4ccc(CS(N)(=O)=O)cc4c(=O)c3c2)cn1 ?
Response given: 7.6

Challenge: Would you mind telling me what inhibition value was observed for O=C(CCc1ccc2ccc3ncc(C4CCNCC4)cc3c(=O)c2c1)NCc1ccccn1 ?
Response given: -7.1

====

# target_of_assay: MAPK11 (human)
# assay_procedure: Caliper, Mobility shift assay off-chip
# stated_conditions: compound 1.0 µM
parameter: inhibition
Number first, unit second.

Challenge: Would you mind telling me what inhibition value was observed for Cn1cc(-c2cnc3ccc4ccc(CS(=O)(=O)CCc5ccccn5)cc4c(=O)c3c2)cn1 ?
Response given: -1.8%

Challenge: Would you mind telling me what inhibition value was observed for O=C(CCc1ccc2ccc3ncc(C4CCNCC4)cc3c(=O)c2c1)NCc1ccccn1 ?
Response given: -1%

Challenge: Would you mind telling me what inhibition value was observed for CN(c1ccc2ccc3ncc(-c4cnn(C)c4)cc3c(=O)c2c1)S(=O)(=O)NCc1ccccn1 ?
Response given: -5.4%

Challenge: Would you mind telling me what inhibition value was observed for Cn1cc(-c2cnc3ccc4ccc(CS(N)(=O)=O)cc4c(=O)c3c2)cn1 ?
Response given: -4.1%

====

# target_of_assay: AURKA (human) (UniProt O14965)
# Sequence (O14965 whole entry, looked up): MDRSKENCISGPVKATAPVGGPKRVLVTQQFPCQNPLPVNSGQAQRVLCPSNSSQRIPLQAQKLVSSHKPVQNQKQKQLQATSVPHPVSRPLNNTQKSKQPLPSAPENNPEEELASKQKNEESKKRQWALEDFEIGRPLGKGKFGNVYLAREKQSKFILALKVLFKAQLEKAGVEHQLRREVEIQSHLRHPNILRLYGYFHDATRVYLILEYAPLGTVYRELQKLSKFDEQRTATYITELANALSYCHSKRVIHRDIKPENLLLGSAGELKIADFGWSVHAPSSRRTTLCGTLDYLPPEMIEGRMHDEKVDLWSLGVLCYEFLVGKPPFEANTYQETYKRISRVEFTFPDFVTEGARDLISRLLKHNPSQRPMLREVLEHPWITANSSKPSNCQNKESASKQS
# assay_procedure: Caliper, Mobility shift assay off-chip
# stated_conditions: compound 0.1 µM
parameter: inhibition (%)
# output: bare number, implied unit %

Challenge: Checklist item: inhibition tested on AURKA (human) (UniProt O14965), entry O=C(CCc1ccc2ccc3ncc(C4CCNCC4)cc3c(=O)c2c1)NCc1ccccn1 , value?
Response given: 3.7

Challenge: Checklist item: inhibition tested on AURKA (human) (UniProt O14965), entry Cn1cc(-c2cnc3ccc4ccc(CS(=O)(=O)NC5CCCCC5)cc4c(=O)c3c2)cn1 , value?
Response given: 6.9

Challenge: Checklist item: inhibition tested on AURKA (human) (UniProt O14965), entry Cn1cc(-c2cnc3ccc4ccc(CS(=O)(=O)CCc5ccccn5)cc4c(=O)c3c2)cn1 , value?
Response given: 15.8

Challenge: Checklist item: inhibition tested on AURKA (human) (UniProt O14965), entry Cn1cc(-c2cnc3ccc4ccc(CS(N)(=O)=O)cc4c(=O)c3c2)cn1 , value?
Response given: 27.6

Challenge: Checklist item: inhibition tested on AURKA (human) (UniProt O14965), entry Cn1cc(-c2cnc3ccc4ccc(CS(=O)(=O)NCC5CCCCN5)cc4c(=O)c3c2)cn1 (configuration not stated) , value?
Response given: 14.5

Challenge: Checklist item: inhibition tested on AURKA (human) (UniProt O14965), entry O=c1c2cc(CS(=O)(=O)NCc3ccccn3)ccc2ccc2ncc(C3CCNCC3)cc12 , value?
Response given: 13.1

Challenge: Checklist item: inhibition tested on AURKA (human) (UniProt O14965), entry CN(c1ccc2ccc3ncc(-c4cnn(C)c4)cc3c(=O)c2c1)S(=O)(=O)NCc1ccccn1 , value?
Response given: 39.7

====

Please go through the items and note down their inhibition.
# target_of_assay: SGK1 (human) (UniProt O00141)
# Sequence (O00141 whole entry, looked up): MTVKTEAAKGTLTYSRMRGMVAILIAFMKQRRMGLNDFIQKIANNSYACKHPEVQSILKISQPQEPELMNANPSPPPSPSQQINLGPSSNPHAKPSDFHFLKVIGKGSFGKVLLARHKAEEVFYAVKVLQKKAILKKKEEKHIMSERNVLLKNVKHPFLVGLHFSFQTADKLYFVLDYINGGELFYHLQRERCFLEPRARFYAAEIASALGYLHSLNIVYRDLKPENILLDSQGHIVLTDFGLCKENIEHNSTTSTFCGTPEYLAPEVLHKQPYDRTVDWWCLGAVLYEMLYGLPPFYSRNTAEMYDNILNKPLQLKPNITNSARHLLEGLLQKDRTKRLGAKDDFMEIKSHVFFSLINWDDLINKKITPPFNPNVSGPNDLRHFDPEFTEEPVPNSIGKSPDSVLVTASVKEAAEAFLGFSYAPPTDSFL
# assay_procedure: Caliper, Mobility shift assay off-chip
# stated_conditions: compound 0.1 µM
# output: bare number, implied unit %

Challenge: Would you mind telling me what inhibition value was observed for Cn1cc(-c2cnc3ccc4ccc(CS(=O)(=O)NC5CCCCC5)cc4c(=O)c3c2)cn1 ?
Response given: 9.1

Challenge: Would you mind telling me what inhibition value was observed for O=C(CCc1ccc2ccc3ncc(C4CCNCC4)cc3c(=O)c2c1)NCc1ccccn1 ?
Response given: -2.2

Challenge: Would you mind telling me what inhibition value was observed for Cn1cc(-c2cnc3ccc4ccc(CS(=O)(=O)NCC5CCCCN5)cc4c(=O)c3c2)cn1 (configuration not stated) ?
Response given: 7.2

Challenge: Would you mind telling me what inhibition value was observed for O=c1c2cc(CS(=O)(=O)NCc3ccccn3)ccc2ccc2ncc(C3CCNCC3)cc12 ?
Response given: -31.9

Challenge: Would you mind telling me what inhibition value was observed for Cn1cc(-c2cnc3ccc4ccc(CS(N)(=O)=O)cc4c(=O)c3c2)cn1 ?
Response given: 6.8

Challenge: Would you mind telling me what inhibition value was observed for CN(c1ccc2ccc3ncc(-c4cnn(C)c4)cc3c(=O)c2c1)S(=O)(=O)NCc1ccccn1 ?
Response given: -0.4

Challenge: Would you mind telling me what inhibition value was observed for Cn1cc(-c2cnc3ccc4ccc(CS(=O)(=O)CCc5ccccn5)cc4c(=O)c3c2)cn1 ?
Response given: 1.7

====

# target_of_assay: PRKD3 (human)
# assay_procedure: Caliper, Mobility shift assay off-chip
# stated_conditions: compound 0.1 µM
Please go through the items and note down their inhibition.
# output: bare number, implied unit %

Challenge: Would you mind telling me what inhibition value was observed for Cn1cc(-c2cnc3ccc4ccc(CS(=O)(=O)CCc5ccccn5)cc4c(=O)c3c2)cn1 ?
Response given: -6.1

Challenge: Would you mind telling me what inhibition value was observed for O=C(CCc1ccc2ccc3ncc(C4CCNCC4)cc3c(=O)c2c1)NCc1ccccn1 ?
Response given: -21.2

Challenge: Would you mind telling me what inhibition value was observed for Cn1cc(-c2cnc3ccc4ccc(CS(=O)(=O)NCC5CCCCN5)cc4c(=O)c3c2)cn1 (configuration not stated) ?
Response given: -11.5

Challenge: Would you mind telling me what inhibition value was observed for O=c1c2cc(CS(=O)(=O)NCc3ccccn3)ccc2ccc2ncc(C3CCNCC3)cc12 ?
Response given: -5.2

Challenge: Would you mind telling me what inhibition value was observed for CN(c1ccc2ccc3ncc(-c4cnn(C)c4)cc3c(=O)c2c1)S(=O)(=O)NCc1ccccn1 ?
Response given: 8

Challenge: Would you mind telling me what inhibition value was observed for Cn1cc(-c2cnc3ccc4ccc(CS(N)(=O)=O)cc4c(=O)c3c2)cn1 ?
Response given: -8.8

Challenge: Would you mind telling me what inhibition value was observed for Cn1cc(-c2cnc3ccc4ccc(CS(=O)(=O)NC5CCCCC5)cc4c(=O)c3c2)cn1 ?
Response given: 10.4

====

# target_of_assay: CDK2 (human) (UniProt P24941)
# assay_procedure: Caliper, Mobility shift assay off-chip
# stated_conditions: compound 0.1 µM
parameter: inhibition (%)
# output: bare number, implied unit %

Challenge: Would you mind telling me what inhibition value was observed for Cn1cc(-c2cnc3ccc4ccc(CS(N)(=O)=O)cc4c(=O)c3c2)cn1 ?
Response given: 1.2

Challenge: Would you mind telling me what inhibition value was observed for CN(c1ccc2ccc3ncc(-c4cnn(C)c4)cc3c(=O)c2c1)S(=O)(=O)NCc1ccccn1 ?
Response given: 3.1

Challenge: Would you mind telling me what inhibition value was observed for Cn1cc(-c2cnc3ccc4ccc(CS(=O)(=O)CCc5ccccn5)cc4c(=O)c3c2)cn1 ?
Response given: -6.3

Challenge: Would you mind telling me what inhibition value was observed for Cn1cc(-c2cnc3ccc4ccc(CS(=O)(=O)NC5CCCCC5)cc4c(=O)c3c2)cn1 ?
Response given: 11.7

Challenge: Would you mind telling me what inhibition value was observed for O=c1c2cc(CS(=O)(=O)NCc3ccccn3)ccc2ccc2ncc(C3CCNCC3)cc12 ?
Response given: -0.9

Challenge: Would you mind telling me what inhibition value was observed for O=C(CCc1ccc2ccc3ncc(C4CCNCC4)cc3c(=O)c2c1)NCc1ccccn1 ?
Response given: -10

Challenge: Would you mind telling me what inhibition value was observed for Cn1cc(-c2cnc3ccc4ccc(CS(=O)(=O)NCC5CCCCN5)cc4c(=O)c3c2)cn1 (configuration not stated) ?
Response given: 1.9

====

# target_of_assay: DCLK2 (human)
# assay_procedure: Caliper, Mobility shift assay off-chip
# stated_conditions: compound 1.0 µM
parameter: inhibition (%)
# output: bare number, implied unit %

Challenge: Checklist item: inhibition tested on DCLK2 (human), entry CN(c1ccc2ccc3ncc(-c4cnn(C)c4)cc3c(=O)c2c1)S(=O)(=O)NCc1ccccn1 , value?
Response given: 4.1

Challenge: Checklist item: inhibition tested on DCLK2 (human), entry Cn1cc(-c2cnc3ccc4ccc(CS(=O)(=O)NCC5CCCCN5)cc4c(=O)c3c2)cn1 (stereo not given) , value?
Response given: -0.3

Challenge: Checklist item: inhibition tested on DCLK2 (human), entry Cn1cc(-c2cnc3ccc4ccc(CS(N)(=O)=O)cc4c(=O)c3c2)cn1 , value?
Response given: 8.4

Challenge: Checklist item: inhibition tested on DCLK2 (human), entry O=C(CCc1ccc2ccc3ncc(C4CCNCC4)cc3c(=O)c2c1)NCc1ccccn1 , value?
Response given: 5.8

Challenge: Checklist item: inhibition tested on DCLK2 (human), entry Cn1cc(-c2cnc3ccc4ccc(CS(=O)(=O)CCc5ccccn5)cc4c(=O)c3c2)cn1 , value?
Response given: -2.5
